Data provenance is patent US6039950A.

Molecular target: rat prostatic androgen receptor (Rattus norvegicus, UniProt P15207)
Construct: the ventral prostates were rapidly removed and placed in ice-cold "homogenization buffer"; from tissue; host or cells: washed nuclear suspension of ventral prostate from testosterone-treated male rats (Harlan)
Sequence (P15207 whole entry S389L): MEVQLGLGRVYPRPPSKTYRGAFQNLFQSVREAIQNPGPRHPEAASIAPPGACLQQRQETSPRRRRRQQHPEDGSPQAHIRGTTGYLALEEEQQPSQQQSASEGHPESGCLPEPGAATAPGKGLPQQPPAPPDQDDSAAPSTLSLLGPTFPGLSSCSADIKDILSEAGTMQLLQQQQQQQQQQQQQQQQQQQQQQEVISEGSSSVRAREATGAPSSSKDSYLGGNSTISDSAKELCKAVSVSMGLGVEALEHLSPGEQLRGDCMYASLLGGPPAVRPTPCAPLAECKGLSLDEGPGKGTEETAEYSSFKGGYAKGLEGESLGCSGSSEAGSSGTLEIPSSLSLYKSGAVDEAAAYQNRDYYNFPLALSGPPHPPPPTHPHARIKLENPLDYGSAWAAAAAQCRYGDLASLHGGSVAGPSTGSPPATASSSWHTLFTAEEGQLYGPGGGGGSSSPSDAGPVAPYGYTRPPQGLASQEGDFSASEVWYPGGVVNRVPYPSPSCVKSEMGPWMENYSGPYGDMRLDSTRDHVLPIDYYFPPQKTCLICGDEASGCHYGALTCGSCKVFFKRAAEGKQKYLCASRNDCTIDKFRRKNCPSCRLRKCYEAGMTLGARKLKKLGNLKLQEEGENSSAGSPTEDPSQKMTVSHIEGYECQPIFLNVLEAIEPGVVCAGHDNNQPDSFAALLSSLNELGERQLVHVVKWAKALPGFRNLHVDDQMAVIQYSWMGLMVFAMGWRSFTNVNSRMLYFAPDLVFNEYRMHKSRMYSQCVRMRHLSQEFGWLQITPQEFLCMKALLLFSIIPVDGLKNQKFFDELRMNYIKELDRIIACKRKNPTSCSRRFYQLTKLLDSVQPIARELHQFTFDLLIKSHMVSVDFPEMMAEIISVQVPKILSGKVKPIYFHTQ
Test: Rat prostatic nuclear androgen receptor binding assay against 3H-dihydrotestosterone
Conditions: Table 4, marker compounds; read-out: Androgen Receptor IC50 (Table 4)
OBSERVATION TYPE: IC50 (µM)
Quick note: give the figure in µM, leave out the unit.

Recorded IC50 of C/C(=C\CO)CCC[C@H](C)CCC[C@H](C)CCCC(C)C , please.
10

###

Target: UniProtKB P12527
Assay: biochemical
Details: reference compound; read-out: IC50, reference compounds, 5-lipoxygenase
OBSERVATION TYPE: IC50 (µM)
Give the value in µM but do not write µM after it.

Missing value: IC50, UniProtKB P12527, entry O=C1CCN(c2ccccc2)N1 [phenidone, reference compound] . Fill in?
30

###

Target: Cyclooxygenase-2 (Ovis aries, UniProt P79208)
Construct: Cyclooxygenase-2 (from sheep placenta); from tissue; host or cells: sheep placenta; assay by Panlabs
Sequence (P79208 17-603): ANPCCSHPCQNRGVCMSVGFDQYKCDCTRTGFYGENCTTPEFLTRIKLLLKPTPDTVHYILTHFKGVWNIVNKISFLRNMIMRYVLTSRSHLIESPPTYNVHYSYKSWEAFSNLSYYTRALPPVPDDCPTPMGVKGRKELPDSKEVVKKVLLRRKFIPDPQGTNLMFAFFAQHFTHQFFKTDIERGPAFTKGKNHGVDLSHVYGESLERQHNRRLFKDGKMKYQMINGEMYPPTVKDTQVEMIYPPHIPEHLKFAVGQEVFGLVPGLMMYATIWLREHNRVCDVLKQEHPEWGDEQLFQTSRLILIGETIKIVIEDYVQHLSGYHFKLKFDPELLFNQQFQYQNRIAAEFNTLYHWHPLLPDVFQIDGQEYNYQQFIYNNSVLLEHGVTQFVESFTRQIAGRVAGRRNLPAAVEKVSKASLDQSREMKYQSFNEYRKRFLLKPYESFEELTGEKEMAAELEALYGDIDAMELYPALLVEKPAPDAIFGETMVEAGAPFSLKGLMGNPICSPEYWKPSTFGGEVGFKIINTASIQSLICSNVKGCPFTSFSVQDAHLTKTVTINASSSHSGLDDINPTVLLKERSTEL
Test: biochemical
Type: biochemical, sheep
OBSERVATION TYPE: Cox2 activity

Consider the following illustrative entries.
CCCCCCCCCCCCCCCC(=O)O
Negative
CCCCCCCCCCCCCCCC(=O)OCC [Ethyl Palmitate]
Negative
CCCCCCCCCCCCCC(=O)OCC [Myristic Ester, ethyl myristate]
Negative
CC/C=C\C/C=C\C/C=C\CCCCCCCC(=O)O
Negative
CCCCCCCC/C=C\CCCCCCCC(=O)O
Negative

GET /values?readout=Cox2 activity&item= CCCCCCCCCCCCCC(=O)O
Negative

And for CCCCCCCCCCCC(=O)O ?
Negative

###

Biological target: 5-lipoxygenase (Rattus norvegicus)
Sequence (P12527 1-673): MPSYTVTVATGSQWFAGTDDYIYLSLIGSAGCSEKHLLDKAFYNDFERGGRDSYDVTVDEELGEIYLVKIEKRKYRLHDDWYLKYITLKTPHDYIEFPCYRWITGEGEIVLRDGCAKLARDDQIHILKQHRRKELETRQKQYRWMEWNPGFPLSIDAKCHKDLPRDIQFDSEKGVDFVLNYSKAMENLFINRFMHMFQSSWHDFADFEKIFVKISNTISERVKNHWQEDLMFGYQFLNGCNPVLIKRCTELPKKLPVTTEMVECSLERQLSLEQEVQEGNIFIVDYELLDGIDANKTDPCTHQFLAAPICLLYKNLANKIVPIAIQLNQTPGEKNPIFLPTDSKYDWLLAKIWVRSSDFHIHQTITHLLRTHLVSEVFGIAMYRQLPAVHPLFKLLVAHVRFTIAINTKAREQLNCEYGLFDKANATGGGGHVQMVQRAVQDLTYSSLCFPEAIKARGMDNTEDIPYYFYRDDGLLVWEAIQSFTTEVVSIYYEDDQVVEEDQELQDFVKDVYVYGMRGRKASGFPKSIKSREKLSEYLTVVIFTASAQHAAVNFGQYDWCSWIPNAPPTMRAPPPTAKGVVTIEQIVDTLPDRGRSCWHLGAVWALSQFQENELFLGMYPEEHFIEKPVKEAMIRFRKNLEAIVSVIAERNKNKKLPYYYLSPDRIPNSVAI
Assay: biochemical
The following molecules are shown together with reported IC50 values.

The following molecules have reported results that may help.
CC/C=C\C/C=C\C/C=C\CCCCCCCC(=O)O [Linolenic Acid]
12 µM
CCCCCCCC/C=C\CCCCCCCC(=O)OCC [Ethyl Oleate]
> 30 µM
CCCCCCCCCCCCCC(=O)O [Myristic Acid]
> 30 µM
CCCCC/C=C\C/C=C\CCCCCCCC(=O)O [Linoleic Acid]
> 30 µM

Turning to the following molecule.
Form field - read-out: IC50; system: 5-lipoxygenase (Rattus norvegicus); submitted item: CC[C@H](CC[C@@H](C)[C@H]1CC[C@H]2[C@@H]3CC=C4C[C@@H](O)CC[C@]4(C)[C@H]3CC[C@]12C)C(C)C [β-sitosterol]
> 30 µM

###

Target: 5-lipoxygenase (Rattus norvegicus, UniProt P12527)
Assay: biochemical
Conditions: Table 8; read-out: 5 Lipoxygenase IC50 (Table 8)
Quick reference for IC50 among some molecules

Requested field: IC50. Item: CC/C=C\C/C=C\C/C=C\CCCCCCCC(=O)OCC [Ethyl linolenate]
> 30 µM

Subsequent entry: CCCCCCCCCCCCCCCC(=O)O
> 30 µM

And the next one, CCCCCCCCCCCC(=O)O ?
> 30 µM

Also CCCCCCCC/C=C\CCCCCCCC(=O)O ?
> 30 µM

Okay, and CCCCC/C=C\C/C=C\CCCCCCCC(=O)OCC [Ethyl linoleate, ethyl linoleate] ?
> 30 µM

Field entry: CCCCCCCCCCCCCCCC(=O)OCC [Ethyl Palmitate]
> 30 µM

Again, but for CCCCCCCCCCCC(=O)OCC [Ethyl laurate]
> 30 µM

###

Target: Cyclooxygenase-1 (Ovis aries)
Construct: Cyclooxygenase-1 (from ram seminal vesicles); from tissue; host or cells: ram seminal vesicles; assay by Panlabs
Sequence (P05979 25-600): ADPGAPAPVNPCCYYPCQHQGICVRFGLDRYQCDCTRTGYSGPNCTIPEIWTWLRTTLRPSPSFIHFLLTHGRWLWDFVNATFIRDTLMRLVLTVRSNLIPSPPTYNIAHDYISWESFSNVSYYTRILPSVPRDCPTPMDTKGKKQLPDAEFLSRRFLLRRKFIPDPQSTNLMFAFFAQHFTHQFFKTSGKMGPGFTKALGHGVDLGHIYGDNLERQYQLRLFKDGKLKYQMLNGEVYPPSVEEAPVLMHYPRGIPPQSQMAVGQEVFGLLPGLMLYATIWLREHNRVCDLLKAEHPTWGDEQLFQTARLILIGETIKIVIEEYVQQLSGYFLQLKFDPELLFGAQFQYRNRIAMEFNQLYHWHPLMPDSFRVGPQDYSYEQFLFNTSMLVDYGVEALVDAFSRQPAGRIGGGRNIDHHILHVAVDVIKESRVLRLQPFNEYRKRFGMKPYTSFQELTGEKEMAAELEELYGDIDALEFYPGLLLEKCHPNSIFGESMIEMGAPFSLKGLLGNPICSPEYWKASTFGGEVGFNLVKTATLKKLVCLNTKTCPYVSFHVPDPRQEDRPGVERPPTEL
Test: biochemical
Type: biochemical, ram
Settings: Table 8; read-out: Cyclooxygenase-1 IC50 (Table 8)
pIC50: −log10 of the molar value.
OBSERVATION TYPE: pIC50

As a guide, the following entries are already answered.
CCCCCCCCCCCCCC(=O)O
< 3.52
CC/C=C\C/C=C\C/C=C\CCCCCCCC(=O)OCC [Ethyl linolenate]
< 3.52

Return reported pIC50; argument: CCCCCCCCCCCC(=O)O
< 3.52
